# Test: Primary qHTS for delayed death inhibitors of the malarial parasite plastid, 48 hour incubation; note: potency is the fitted concentration of half-maximal effect
# Condition notes: P. falciparum luciferase growth in erythrocytes; series mostly up to 28.7 µM
The whole screen tested about 310,000 compounds, of which about 18,000 (5.8%) were called active. Inconclusive results (about 22%) are left out. Only a selection was taken, and actives are over-represented in it overall.
Parameter: Potency

Answered examples (8):
>  <Compound>
Cc1c(C)c2c(OCC(=O)NCCCO)cc3c(c2oc1=O)CCC(C)(C)O3

>  <Potency>
inactive

$$$$
>  <Compound>
COc1ccccc1-n1c(C)nc2cc(C(=O)NCc3ccc4c(c3)OCO4)ccc21

>  <Potency>
inactive

$$$$
>  <Compound>
CC(=O)c1ccc(S(=O)(=O)NCCC(=O)N2CCN(c3ccccn3)CC2)cc1

>  <Potency>
inactive

$$$$
>  <Compound>
CNC(=O)COC(=O)c1cc(-c2ccc(OC)cc2)nc2ccccc12

>  <Potency>
inactive

$$$$
>  <Compound>
Cc1cc(C)n2nc(C(=O)OC(C)C(=O)c3cc(C)c(C)cc3C)nc2n1 (stereo not drawn)

>  <Potency>
inactive

$$$$
>  <Compound>
Cc1ccc(S(=O)(=O)N(C)CC(=O)NCCc2c[nH]c3ccccc23)cc1

>  <Potency>
inactive

$$$$
>  <Compound>
CC(=O)Nc1ccc(NC(=O)C(C)OC(=O)C2CC(=O)N(CCc3ccccc3)C2)cc1 (stereo not drawn)

>  <Potency>
inactive

$$$$
>  <Compound>
Cc1cccc(NC(=O)C2CCCN(C(=O)Nc3ccc(F)cc3)C2)c1C (stereo not drawn)

>  <Potency>
inactive

$$$$

Potency in this record for O=C(c1ccco1)N1CCN(C(=O)c2cc(-c3ccccc3F)no2)CC1 : inactive

Entry Cc1cc(C(=O)N/N=C/c2ccccn2)c2ccccc2n1 , Potency reported as inactive

Potency in this record for CC(=O)CC[C@@H](C)O[C@@H]1OC(C)[C@H](O)CC1O (stereo partly drawn) : inactive

Per the records, this compound ( CCOC(=O)c1ccccc1NC(=O)COC(=O)CCC(=O)N1CCOCC1 ) has Potency equal to inactive

Query CCCN(CC(=O)Nc1ccccc1C)C(=O)c1cc(=O)[nH]c2ccccc12 yields Potency of inactive

Please fill in: Potency reported for CCC(C)(C)NC(=O)C(c1ccccn1)N(C(=O)c1csnn1)c1ccccc1 (stereo not drawn) = inactive

Query Cc1ccccc1-c1cc(C(=O)NCC2CC2)n(CC2CC(c3cccnc3)=NO2)n1 (stereo not drawn) yields Potency of inactive

The compound listed as COc1ccc(NC(=O)CSc2nc3ccccc3c(=O)n2C)cc1 has a reported Potency of 9.28 µM (active)

Item: CCOC(=O)c1c(CN2CCOCC2)n(-c2ccccc2)c2ccc(O)cc12 | Potency: 10.4 µM (active)

// field: Potency; key: CN(C)C(=O)Oc1ccc2c(c1)O/C(=C\c1ccccc1)C2=O ; value = inactive

====

# Test: Primary qHTS for delayed death inhibitors of the malarial parasite plastid, 48 hour incubation
# Condition notes: P. falciparum luciferase growth in erythrocytes; series mostly up to 28.7 µM
Hit rate of the full screen: of about 310,000 compounds, about 18,000 (5.8%) were called active. Inconclusive results (about 22%) are left out. Calls come from the whole dose curve; as a rule, active = well fitted inhibition curve with a large enough effect; inconclusive = small, poorly fitted or top-dose-only effect, or another doubt; inactive = no such curve, though single readings can be large or run the other way. This excerpt belongs to a sample that is enriched for actives.
Reply using exactly one outcome from active, inactive

A selection of reference data follows.
>  <Compound>
Cc1ccc(C(=O)C[n+]2cc(-c3ccccc3)n3c2CCCCC3)cc1

>  <Assigned category>
active

$$$$
>  <Compound>
CC(C)=CCN1CCN(Cc2cc3ccccc3[nH]2)CC1CCO (stereo not drawn)

>  <Assigned category>
inactive

$$$$
>  <Compound>
Cc1c(NS(=O)(=O)c2cc(C(=O)NCCc3ccc(F)cc3)cc(Cl)c2Cl)c(=O)n(-c2ccccc2)n1C

>  <Assigned category>
inactive

$$$$
>  <Compound>
CCCNC(=O)CSc1nc(Cc2ccccc2)nc2ccccc12

>  <Assigned category>
inactive

$$$$
>  <Compound>
COc1cc2cc(C(=O)N/N=C/c3cccc(OC)c3OC)[nH]c2cc1OC

>  <Assigned category>
inactive

$$$$
>  <Compound>
CN(CCc1ccccn1)C(=O)c1ccc(OC2CCN(Cc3ccccn3)CC2)cc1

>  <Assigned category>
inactive

$$$$

Prompt: GET /call?item= COCCn1c(SCC(=O)Nc2nc(C)cs2)nnc1C(C)C returns the recorded outcome of this test.
Response: inactive

Prompt: Lab log entry: CC(C)(C)NC(=O)C(c1ccncc1)N(C(=O)CNC(=O)c1ccco1)c1ccc2c(c1)OCO2 (stereo not drawn) — outcome as called in the assay?
Response: inactive

Prompt: What outcome does the record of this test show for O=C(C(c1ccccc1)c1ccccc1)N1CCN(CC(O)COc2ccccc2)CC1 (stereo not drawn) ?
Response: active

Prompt: Could you check what this test reported for COc1ccc(NC(=O)COc2ccc(C(=O)c3ccc(F)cc3)cc2)cc1S(N)(=O)=O ?
Response: inactive

Prompt: Which outcome was assigned to COc1ccc(NC(=O)CNC(=O)Cc2ccccc2)cc1OC in this test?
Response: inactive

Prompt: What was the test verdict on Cc1ccc(CNC(=O)Cn2cnc(S(=O)(=O)N3CCCCC3)c2)o1 ?
Response: inactive

Prompt: Please let me know the test result on file for CC(C)(C)NC(=O)C(c1ccco1)N(Cc1ccc2c(c1)OCO2)C(=O)Cn1nnc2ccccc21 (stereo not drawn) .
Response: active
